Data provenance is patent US20250034173A1.

- Tested target: KRAS G12C (Homo sapiens (Human), UniProt P01116, G12C)
- Sequence (P01116 other isoform, or with tags, fused parts or gaps G12C): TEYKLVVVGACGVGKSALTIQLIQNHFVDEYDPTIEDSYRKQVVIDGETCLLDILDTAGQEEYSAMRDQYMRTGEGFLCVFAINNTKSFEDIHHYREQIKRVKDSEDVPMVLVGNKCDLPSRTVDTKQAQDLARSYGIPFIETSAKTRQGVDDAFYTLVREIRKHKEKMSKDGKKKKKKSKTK
- Test summary: SPR binding affinity and kinetics, GTPγS-loaded KRAS G12C
- Setup conditions: GTPγS loaded protein, geomean
Metric name: Kd

// query For the compound C=C1CN2CCC[C@@]2(COc2nc3c4c(nc(-c5c(C(F)(F)F)ccc6[nH]ncc56)c(F)c4n2)OC[C@@H]2COCCCN32)C1 , what Kd is on record?
// result 84 nM

// query # Kd lookup, item C=C1CN2CCC[C@@]2(COc2nc3c4c(nc(-c5c(C)ccc6[nH]ncc56)c(F)c4n2)OC[C@@H]2COCCCN32)C1
// result 1560 nM

// query Would you kindly share the measured Kd for F/C=C1/CN2CCC[C@@]2(COc2nc3c4c(nc(-c5c(C6CC6)c(Cl)cc6[nH]ncc56)c(F)c4n2)OC[C@@H]2COCCCN32)C1 ?
// result 5 nM

// query Quick one: Kd for OC/C=C1\CN2CCC[C@@]2(COc2nc3c4c(nc(-c5c(C6CC6)c(Cl)cc6[nH]ncc56)c(F)c4n2)OC[C@@H]2COCCCN32)C1 ?
// result 3 nM
